Experiment: Microsomal stability, mouse liver microsomes
Assay type: in vitro ADME
Conditions: female, CD1, mouse, pH 7.4, 0.5 mg/mL microsomes, NADPH, read-out: CLint,met in mouse microsomes
endpoint: microsomal CLint at 1 μM (µL/min/mg)
Give the value in µL/min/mg but do not write µL/min/mg after it.

Input line: What value of measured microsomal CLint at 1 μM is listed for Cc1cc(O)ccc1C(=O)OCCCCCCCCCCCCCC[P+](c1ccccc1)(c1ccccc1)c1ccccn1.[Br-] ?
Output line: 293

----------
Target: recombinant TAO (ΔMTS rTAO) (Trypanosoma brucei brucei, UniProt Q26710)
Construct: […]; SUMO (Small Ubiquitin-related Modifier) fusion from the expression system; made in house
Sequence (Q26710 26-329, stated change not applied): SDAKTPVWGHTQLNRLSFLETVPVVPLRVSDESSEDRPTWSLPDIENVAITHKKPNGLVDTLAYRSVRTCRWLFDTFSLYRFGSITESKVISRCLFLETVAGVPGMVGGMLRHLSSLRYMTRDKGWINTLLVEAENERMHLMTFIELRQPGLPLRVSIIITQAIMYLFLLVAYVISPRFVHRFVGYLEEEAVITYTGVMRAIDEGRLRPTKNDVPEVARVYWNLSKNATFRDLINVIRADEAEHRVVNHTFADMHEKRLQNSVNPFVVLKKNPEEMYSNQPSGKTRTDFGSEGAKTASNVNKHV
Assay: Inhibition of ubiquinol oxidase activity of purified recombinant TAO
Format: biochemical, T. brucei
endpoint: IC50 (µM)
API: value field is a number in µM; no unit string.

Input line: Name the reported IC50 value associated with the compound Cc1c(Cl)c(O)c(Cl)c(O)c1C(=O)OCCCCCCCCCCCCCC[P+](c1ccccc1)(c1ccccc1)c1ccccc1
Output line: 0.16

Input line: So what does the record say about IC50 for Cc1cc(O)cc(O)c1C(=O)OCCCCCCCCCCCCCC[P+](c1ccccc1)(c1ccccc1)c1ccccn1 ?
Output line: 1.6

Input line: Which IC50 is reported for this compound? Cc1cc(O)ccc1C(=O)OCCCCCCCCCCCCCC[P+](c1ccccc1)(c1ccccc1)c1ccccn1.[Br-]
Output line: 0.0013

----------
Test: Microsomal stability, human liver microsomes
Format: in vitro ADME
Conditions: both sexes, pH 7.4, 0.5 mg/mL microsomes, NADPH, read-out: CLint,met in human microsomes
endpoint: microsomal CLint at 1 μM (µL/min/mg)
Quick reminder: number only, in µL/min/mg, skip the unit.

Input line: Give the measured microsomal CLint at 1 μM of Cc1cc(O)ccc1C(=O)OCCCCCCCCCCCCCC[P+](c1ccccc1)(c1ccccc1)c1ccccn1.[Br-] .
Output line: 216

----------
Tested on: T. b. brucei WT (s427) trypomastigotes
Assay: microbe, parasite or virus in culture
Format: cell-based
Settings: Trypanosoma brucei, read-out: T. b. brucei WT (+5 mM glycerol) EC50; incubated in the presence of 5 mM glycerol
endpoint: pEC50
Kindly note that pEC50 refers to -log10 of the concentration in mol/L and answer with the value alone.

Input line: Given the molecule N=C(N)c1ccc(OCCCCCOc2ccc(C(=N)N)cc2)cc1 [Pent., Pentamidine isethionate] , what is its reported pEC50?
Output line: 8.21

Input line: Can you share its pEC50? I mean this molecule: Cc1cc(O)ccc1C(=O)OCCCCCCCCCCCCCC[P+](c1ccccc1)(c1ccccc1)c1ccccn1.[Br-] [Compound 1]
Output line: 8.85

----------
Test system: T. evansi WT
Assay: Resazurin-based drug sensitivity assay, T. evansi WT
Format: cell-based
Exercise: for every item that follows, state its recorded EC50.
Give just the number in nM; leave the unit off.

Input line: Under T. evansi WT: EC50 value of N=C(N)c1ccc(OCCCCCOc2ccc(C(=N)N)cc2)cc1 [Pent., Pentamidine isethionate] ?
Output line: 5.1

Input line: Which EC50 is reported with T. evansi WT for this entry: N=C(N)c1ccc(/N=N/Nc2ccc(C(=N)N)cc2)cc1 [Dim., Diminazene aceturate] ?
Output line: 51.4

Input line: Lab note: need EC50 with T. evansi WT for entry Cc1cc(O)ccc1C(=O)OCCCCCCCCCCCCCC[P+](c1ccccc1)(c1ccccc1)c1ccccn1.[Br-] , please look it up.
Output line: 1.2

----------
Molecular target: recombinant TAO (ΔMTS rTAO) (Trypanosoma brucei brucei, UniProt Q26710)
Construct: […]; SUMO (Small Ubiquitin-related Modifier) fusion from the expression system
Test: TAO inhibitory kinetics (Lineweaver–Burk / Dixon plots)
Procedure: To determine the type of inhibition with purified TAO, the kinetic assay was carried out in the presence of varying concentrations of 1 and substrate concentrations (Ubiquinol; Q1H2) (0–600 μM), with 250 ng TAO in a 1 mL (0.5 M Tris-HCl buffer, pH 7.3) reaction mix. The results were used to construct the Michaelis–Menten plot, which was then transformed to Lineweaver–Burk plots (Figure A). The slopes of the Lineweaver–Burk primary plot were plotted against the varying concentrations of 1. […]
endpoint: Ki (nM)
Report only the number, with the unit nM understood.

Input line: Please give the measured Ki for this compound: Cc1cc(O)ccc1C(=O)OCCCCCCCCCCCCCC[P+](c1ccccc1)(c1ccccc1)c1ccccn1.[Br-]
Output line: 3.46

----------
Tested on: T. brucei aqp1-3 null
Test: microbe, parasite or virus in culture
Type: cell-based, T. b. brucei
Details: Trypanosoma brucei, read-out: aqp1-3 null EC50
endpoint: pEC50
Answer as the number alone; pEC50 is minus log10 of concentration in mol/L.

Input line: Record request: pEC50 value, item O=C(NO)c1ccccc1O [SHAM, Salicylhydroxamic acid]
Output line: 5.16

Input line: Query: pEC50; subject: Cc1cc(O)ccc1C(=O)OCCCCCCCCCCCCCC[P+](c1ccccc1)(c1ccccc1)c1ccccn1.[Br-]
Output line: 8.92

Input line: Need pEC50, item N=C(N)c1ccc(OCCCCCOc2ccc(C(=N)N)cc2)cc1 [Pent., Pentamidine isethionate]
Output line: 7.29
